Test system: Mycobacterium tuberculosis
Assay: Antituberculosis activity against Mycobacterium tuberculosis H37Rv under aerobic conditions by microplate alamar blue assay
Format: functional
So basically: is MIC under 0.05 µM? Then MET. Not under? Then NOT MET.

compoundStructureString: O=[N+]([O-])c1cn2c(n1)OC[C@@H](OCC#Cc1ccc(-c3ccc(C(F)(F)F)nc3)cn1)C2
answerLabel: NOT MET
--
compoundStructureString: O=[N+]([O-])c1cn2c(n1)OC[C@@H](Oc1cc(-c3ccc(C(F)(F)F)cc3)ccn1)C2
answerLabel: NOT MET
--
compoundStructureString: O=[N+]([O-])c1cn2c(n1)OC[C@@H](OC/C=C/c1ccc(-c3ccc(F)cc3)cc1)C2
answerLabel: NOT MET
--
compoundStructureString: O=[N+]([O-])c1cn2c(n1)OC[C@@H](Oc1cc(-c3ccc(C(F)(F)F)nc3)ccn1)C2
answerLabel: NOT MET
--
compoundStructureString: O=[N+]([O-])c1cn2c(n1)OC[C@@H](OC/C=C/c1ccc(-c3ccc(C(F)(F)F)cc3)cc1)C2
answerLabel: MET
--
compoundStructureString: O=[N+]([O-])c1cn2c(n1)OC[C@@H](Oc1ccc(-c3ccc(OC(F)(F)F)cc3)nc1)C2
answerLabel: NOT MET
--
compoundStructureString: O=[N+]([O-])c1cn2c(n1)OC[C@@H](OC/C=C/c1ccc(C(F)(F)F)cn1)C2
answerLabel: MET
